target: Cytochrome P450 3A4 (Homo sapiens, UniProt P08684); test: Induction of CYP3A4 activity in cryopreserved human hepatocytes at 10 uM using midazolam as substrate after 2 days relative to rifampicin; details: 48 h
Sequence (P08684 whole entry): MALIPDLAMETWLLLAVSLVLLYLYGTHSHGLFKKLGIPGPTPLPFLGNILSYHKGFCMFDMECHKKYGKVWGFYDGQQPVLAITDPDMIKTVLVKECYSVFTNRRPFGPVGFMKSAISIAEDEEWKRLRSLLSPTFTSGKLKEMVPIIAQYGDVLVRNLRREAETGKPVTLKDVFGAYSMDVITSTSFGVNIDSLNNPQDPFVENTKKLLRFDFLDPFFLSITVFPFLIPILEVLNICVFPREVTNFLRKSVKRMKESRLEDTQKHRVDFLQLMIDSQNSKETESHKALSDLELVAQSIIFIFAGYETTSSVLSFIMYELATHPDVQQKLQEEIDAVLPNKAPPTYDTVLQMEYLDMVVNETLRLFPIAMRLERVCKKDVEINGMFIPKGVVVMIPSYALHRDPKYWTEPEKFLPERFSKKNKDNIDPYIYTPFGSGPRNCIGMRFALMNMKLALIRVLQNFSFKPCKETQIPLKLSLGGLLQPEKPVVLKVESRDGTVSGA
quantity-measured: Activity
Reply with the number, then its unit.

Known results for compounds:
{"compound": "CN([C@@H]1CCc2c(CC(=O)O)c3ccccn3c2C1)S(=O)(=O)c1ccc(F)cc1", "Activity": "0.9%"}
{"compound": "CN([C@@H]1CCc2c(c3nccnc3n2CC(=O)O)C1)S(=O)(=O)c1ccc(F)cc1", "Activity": "0.9%"}
{"compound": "CN([C@@H]1CCc2c(CC(=O)O)c3ncccc3n2C1)S(=O)(=O)c1ccc(F)cc1", "Activity": "0.9%"}
{"compound": "CN([C@@H]1CCc2c(c3ncccc3n2CC(=O)O)C1)S(=O)(=O)c1ccc(F)cc1", "Activity": "2.8%"}
{"compound": "CN([C@@H]1CCc2c(c3cccnc3n2CC(=O)O)C1)S(=O)(=O)c1ccc(F)cc1", "Activity": "2.8%"}

## Task Requested read-out: Activity. Entry: Cc1c(Cc2ccc3ccccc3n2)c2cc(F)ccc2n1CC(=O)O
## Result 58.8%

## Task Repeat with CN([C@@H]1CCc2c(CC(=O)O)c3ccccc3n2C1)S(=O)(=O)c1ccc(F)cc1
## Result 0.7%

## Task Repeat with CN([C@@H]1CCC2=C(C1)C1C=CC=CC1N2CC(=O)O)S(=O)(=O)c1ccc(F)cc1 (stereo not given in full)
## Result 30.8%

## Task Repeat with CN([C@@H]1CCc2c(c3ccncc3n2CC(=O)O)C1)S(=O)(=O)c1ccc(F)cc1
## Result 0.4%

## Task Repeat with CN(C)c1nc(Cc2ccc(NC(=O)c3ccc(C(F)(F)F)cc3)cc2)nc(N(C)C)c1CC(=O)O
## Result 0.4%
